System: MCF7 cells (breast tumor cells) WT
experimental-details: Test B: cell proliferation/viability assay (CellTiter-Glo) on MCF7 WT
Assay type: cell-based
test-conditions: Homo sapiens, MCF7, 168 h, 7 days of compound exposure
readout: IC50

chemical-structure: Oc1ccc2c(c1)SCC(c1ccc(OC(F)F)c(F)c1)=C2c1ccc(O[C@H]2CCN(CCCF)C2)cc1
reported-result: 1 nM
//
chemical-structure: CCOc1cc(F)c(C2=C(c3ccc(O[C@H]4CCN(CCCF)C4)cc3)c3ccc(O)cc3SC2)cc1F
reported-result: 1 nM
//
chemical-structure: CC(C)(C)c1ccc(C2=C(c3ccc(O[C@H]4CCN(CCCF)C4)cc3)c3ccc(O)cc3SCC2)cc1
reported-result: 0.6 nM

----------
target-or-test-system: ERα in MCF7 cells (Homo sapiens (Human))
experimental-details: Test C: estrogen receptor degradation activity, ERα in cell western assay in MCF7 cells
Format: cell-based
test-conditions: at 3 μM, 4 hours, relative to fulvestrant
Measured % Degradation at 3 μM values are reported for all entries that follow.

molecule: Cc1cc(F)ccc1C1=C(c2ccc(O[C@H]3CCN(CCCF)C3)cc2)c2cc(O)ccc2SCC1
% Degradation at 3 μM: 80%
--
molecule: Oc1ccc(C2Sc3cc(O)ccc3OC2c2ccc(O[C@H]3CCN(CCCF)C3)cc2)cc1 (stereo partly shown)
% Degradation at 3 μM: 77%
--
molecule: Oc1ccc2c(c1)CCCC(c1ccc(OC(F)(F)F)cc1F)=C2c1ccc(N[C@H]2CCN(CCCF)C2)cc1
% Degradation at 3 μM: 88%
--
molecule: CCOc1ccc(C2=C(c3ccc(O[C@H]4CCN(CCCF)C4)nc3)c3ccc(O)cc3SCC2)c(F)n1
% Degradation at 3 μM: 86%

----------
Measured DC50 values are reported for all entries that follow.
target-or-test-system: ERα in MCF7 cells (Homo sapiens (Human), UniProt P03372)
Sequence (P03372 whole entry): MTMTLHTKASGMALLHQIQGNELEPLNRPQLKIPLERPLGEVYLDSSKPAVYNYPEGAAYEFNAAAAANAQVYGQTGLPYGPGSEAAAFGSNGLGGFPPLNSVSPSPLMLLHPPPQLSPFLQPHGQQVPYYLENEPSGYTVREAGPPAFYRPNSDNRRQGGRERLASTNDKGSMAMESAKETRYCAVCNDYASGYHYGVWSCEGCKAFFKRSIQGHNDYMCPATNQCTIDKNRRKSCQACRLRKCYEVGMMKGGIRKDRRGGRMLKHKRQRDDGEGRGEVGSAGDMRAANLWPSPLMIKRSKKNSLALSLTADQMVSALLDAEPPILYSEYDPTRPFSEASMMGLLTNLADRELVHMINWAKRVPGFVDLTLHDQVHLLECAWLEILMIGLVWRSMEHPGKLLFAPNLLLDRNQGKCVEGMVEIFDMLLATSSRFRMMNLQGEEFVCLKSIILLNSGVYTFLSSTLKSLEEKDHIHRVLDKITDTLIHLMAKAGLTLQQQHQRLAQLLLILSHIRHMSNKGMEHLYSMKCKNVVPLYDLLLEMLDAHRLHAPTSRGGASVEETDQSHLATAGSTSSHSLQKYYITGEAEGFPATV
experimental-details: Test C: estrogen receptor degradation activity, ERα in cell western assay in MCF7 cells
Format: cell-based
test-conditions: 4 hours post compound addition, ERα in cell western, read-out: Degradation IC50
readout: DC50 (nM)

compound: Oc1ccc2c(c1)OCCC(c1ccc(OCCN3CCCC3)cc1)=C2c1ccc(O[C@H]2CCN(CCCF)C2)cc1
reported-result: 49
--
compound: Cc1cc(F)ccc1C1=C(c2ccc(O[C@H]3CCN(CCCF)C3)cc2)c2ccc(O)cc2S(=O)(=O)CC1
reported-result: 0.2
--
compound: Oc1ccc2c(c1)OCCC(c1ccc3c(c1)CCN3)=C2c1ccc(O[C@H]2CCN(CCCF)C2)cc1
reported-result: 0.2
--
compound: CC(C)(C)OC(=O)Nc1ccc(C2=C(c3ccc(O[C@H]4CCN(CCCF)C4)cc3)c3ccc(O)cc3SC2)c(F)n1
reported-result: 38
--
compound: Oc1ccc2c(c1)OCC(c1ccc(Cl)cc1Cl)=C2c1ccc(O[C@H]2CCN(CCCF)C2)cc1
reported-result: 7
--
compound: CCOc1ccc(C2=C(c3ccc(O[C@H]4CCN(CCCF)C4)cc3)c3ccc(O)cc3SC2)c(F)c1Cl
reported-result: 0.3
--
compound: Cc1c(O)ccc2c1OCCC(c1ccc3cc[nH]c3c1)=C2c1ccc(O[C@H]2CCN(CCCF)C2)cc1
reported-result: 44
--
compound: Oc1ccc2c(c1)CCCC(c1ccc(Cl)cc1Cl)=C2c1ccc(N[C@H]2CCN(CCCF)C2)cc1
reported-result: 1
--
compound: Oc1ccc2c(c1)SCCC(c1ccc(Cl)cc1F)=C2c1ccc(O[C@H]2CCN(CCCF)C2)cc1
reported-result: 0.5
--
compound: CCOc1cc(F)c(C2=C(c3ccc(O[C@H]4CCN(CCCF)C4)cc3)c3ccc(O)cc3SC2)cc1F
reported-result: 0.2
--
compound: CC(C)(C)c1ccc(C2=C(c3ccc(O[C@H]4CCN(CCCF)C4)cc3)c3cc(O)ccc3CC2)cc1
reported-result: 49
--
compound: COc1ccc(C2=C(c3ccc(O[C@H]4CCN(CCCF)C4)cc3)c3ccc(O)cc3OCC2)c(C)c1
reported-result: 0.2
--
compound: Cc1cc2c(cc1O)OCCC(c1ccc3c(c1)CCN3)=C2c1ccc(O[C@H]2CCN(CCCF)C2)cc1
reported-result: 5
--
compound: Oc1ccc2c(c1F)CCCC(c1ccc(OC(F)F)c(F)c1)=C2c1ccc(O[C@H]2CCN(CCCF)C2)nc1
reported-result: 0.3
--
compound: Oc1ccc2c(c1F)CCCC(c1ccc(Cl)cc1Cl)=C2c1ccc(O[C@H]2CCN(CCCF)C2)nc1
reported-result: 0.5
--
compound: Oc1ccc2c(c1)SCC(c1ccc(OC(F)(F)F)cc1)=C2c1ccc(O[C@H]2CCN(CCCF)C2)nc1
reported-result: 0.2
--
compound: O=S1(=O)CCC(c2cccc(F)c2Cl)=C(c2ccc(O[C@H]3CCN(CCCF)C3)cc2)c2ccc(O)cc21
reported-result: 0.2
--
compound: Cc1ccc(C2=C(c3ccc(O[C@H]4CCN(CCCF)C4)cc3)c3ccc(O)cc3[S+]([O-])C2)c(F)c1 (some centres unmarked) [Example 57]
reported-result: 3
--
compound: Oc1ccc2c(c1)SCCC(c1ccc(Cl)c(F)c1)=C2c1ccc(O[C@H]2CCN(CCCF)C2)cc1
reported-result: 0.7
--
compound: Oc1ccc2c(c1Cl)OCCC(c1ccc3[nH]ccc3c1)=C2c1ccc(O[C@H]2CCN(CCCF)C2)cc1
reported-result: 5
--
compound: Cc1cc2c(cc1O)OCCC(c1ccc3[nH]ccc3c1)=C2c1ccc(O[C@H]2CCN(CCCF)C2)cc1
reported-result: 9
--
compound: Oc1ccc2c(c1)SCCC(c1ccc(OC(F)F)cc1F)=C2c1ccc(O[C@H]2CCN(CCCF)C2)cc1
reported-result: 0.9
--
compound: CCOc1ccc(C2=C(c3ccc(O[C@H]4CCN(CCCF)C4)nc3)c3ccc(O)c(F)c3CCC2)c(F)n1
reported-result: 0.2
--
compound: Oc1ccc2c(c1Cl)OCCC(c1cccc3c1CCN3)=C2c1ccc(O[C@H]2CCN(CCCF)C2)cc1
reported-result: 14
--
compound: Oc1ccc2c(c1)SCCC(c1ccc(Cl)cc1Cl)=C2c1ccc(O[C@H]2CCN(CCCF)C2)cc1
reported-result: 2
--
compound: Oc1ccc2c(c1)SCC(c1ccc(F)nc1F)=C2c1ccc(O[C@H]2CCN(CCCF)C2)cc1
reported-result: 0.2

----------
target-or-test-system: His6-ERα298-554 WT (ERα ligand-binding domain) (Homo sapiens (Human))
Sequence (P03372 298-554): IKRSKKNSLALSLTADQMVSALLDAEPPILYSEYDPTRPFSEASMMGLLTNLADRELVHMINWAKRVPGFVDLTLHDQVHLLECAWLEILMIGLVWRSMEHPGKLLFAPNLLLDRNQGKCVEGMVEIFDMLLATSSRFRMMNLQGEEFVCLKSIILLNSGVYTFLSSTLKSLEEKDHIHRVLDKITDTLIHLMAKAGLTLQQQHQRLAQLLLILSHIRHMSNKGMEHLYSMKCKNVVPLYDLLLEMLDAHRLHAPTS
experimental-details: Test A: biochemical antagonist activity, LanthaScreen TR-FRET ERα coactivator assay, WT
test-conditions: protocol with 3 nM estradiol; read-out: Antagonism WT IC50
Label fulfilled when IC50 is strictly below 70 nM; otherwise label not fulfilled.

chemical-structure: Oc1ccc2c(c1)SCC(c1ccc(F)cc1Cl)=C2c1ccc(O[C@H]2CCN(CCCF)C2)cc1
target-or-test-system: His6-ERα298-554 WT (ERα ligand-binding domain) (Homo sapiens (Human))
class-label: fulfilled

chemical-structure: Oc1ccc2c(c1)SCCC(c1ccc3c(c1)CCN3)=C2c1ccc(O[C@H]2CCN(CCCF)C2)cc1
target-or-test-system: His6-ERα298-554 WT (ERα ligand-binding domain) (Homo sapiens (Human))
class-label: fulfilled

chemical-structure: Cc1c(Cl)cccc1C1=C(c2ccc(O[C@H]3CCN(CCCF)C3)cc2)c2ccc(O)cc2OCC1
target-or-test-system: His6-ERα298-554 WT (ERα ligand-binding domain) (Homo sapiens (Human))
class-label: fulfilled

chemical-structure: Cc1ccc(C2=C(c3ccc(O[C@H]4CCN(CCCF)C4)cc3)c3ccc(O)c(F)c3OCC2)c(F)c1
target-or-test-system: His6-ERα298-554 WT (ERα ligand-binding domain) (Homo sapiens (Human))
class-label: fulfilled

chemical-structure: Oc1ccc2c(c1Cl)OCCC(c1cccc3c1CCN3)=C2c1ccc(O[C@H]2CCN(CCCF)C2)cc1
target-or-test-system: His6-ERα298-554 WT (ERα ligand-binding domain) (Homo sapiens (Human))
class-label: not fulfilled

chemical-structure: Oc1cc2c(cc1Cl)C(c1ccc(O[C@H]3CCN(CCCF)C3)cc1)=C(c1ccc3[nH]ccc3c1)CCO2
target-or-test-system: His6-ERα298-554 WT (ERα ligand-binding domain) (Homo sapiens (Human))
class-label: not fulfilled

----------
target-or-test-system: His6-ERα298-554 D538G mutant (ERα ligand-binding domain) (Homo sapiens (Human), UniProt P03372, D538G)
Sequence (P03372 298-554 D538G): as the sequence (P03372 298-554) above, with D241G counted along it
experimental-details: Test A: biochemical antagonist activity, LanthaScreen TR-FRET ERα coactivator assay, D538G mutant
test-conditions: asterisk (*): protocol using 10 nM estradiol; read-out: Antagonism D538G IC50
pIC50: −log10 of the molar value.
Measured pIC50 values are reported for all entries that follow.

compound: CC(C)(C)c1ccc(C2=C(c3ccc(O[C@H]4CCN(CCCF)C4)cc3)c3cc(O)ccc3CC2)cc1
pIC50: < 5.40
--
compound: Oc1ccc2c(c1)OCC(c1ccc(Cl)cc1Cl)=C2c1ccc(O[C@H]2CCN(CCCF)C2)cc1
pIC50: < 5.40
--
compound: Cc1ccc(C2=C(c3ccc(O[C@H]4CCN(CCCF)C4)cc3)c3ccc(O)cc3[S+]([O-])C2)c(F)c1 (single isomer, unassigned) [Example 71]
pIC50: < 5.40
